MEASURED_ON: fusion glycoprotein of the RSV used in the neutralization assay of Example 1 (respiratory syncytial virus (strain not stated))
ASSAY_EXPLANATION: cell-based or functional assay
# RSV Neutralization - IC50 per record follows

# BINDER, RSV Neutralization - IC50, ng/mL
records = [
    ("MPK188 (antibody, V domains shown) VH: EVQLVQSGAEVKKPGESLKISCQASGYSFINYWIGWVRQMPGKGLEWMGIIYPFDSDTNYSPSFQGLVTISADKSINTAYLQWRSLKASDTAMYYCARFTFGIALVAGDVNGEGHAFDIWGQGTVVTVSS VL: EIVMTQSPATLSVSPGESATLSCRASQGVAGNLAWYQQRPGQAPRLLIYGTSTRATGVPARFSGSGSETEFTLTISSLQSEDFAVYYCHHYSNWPQAFGQGTRLDIK", 1),
    ("MPK141 (antibody, V domains shown) VH: EVQLVESGGGLVKPGGSLRLSCAASGFTISGYYMTWIRQAPGKGLEWISYISGSSSYTNYADSVKGRFTISRDNGRNSVYLQMNSLRADDTGVYYCAREETPSPGPFDSWGQGILVTVSS VL: QSVLTQPPSVSGAPGQRIIISCIGSSSNIGTGYDVHWYQQLPGRAPKLLISRNTNRPSGIPDRFSGSKSGTSASLAITGLQADDEADYYCQSYDRGLDGWVFGGGTKLTVL", 14),
    ("MPK136 (antibody, V domains shown) VH: EVQLVESGGGLVKPGGSLRLSCEASGFSLSGYYMIWIRQAPGKGLEWISSISGSGNYINYADSVKGRFTVSRDNGHNTLYLQMNSLRVEDTAVYYCATEQTPSPGPFDHWGQGTLVTVSS VL: QVQLVQPPSVSGAPGQRVSISCTGTSSNIGTGYDVHWYQQFPGTSPKLLIYRNTNRPSGVPDRFSGSKSGSSASLAIAGLQAEDEADYYCQSYDRSVSGWVFGGGTKLTVL", 34.4),
    ("MPK145 (antibody, V domains shown) VH: EVQLVESGGGLVEPGGSLRLSCAASGFTISGYGMSWVRQAPGKGLEWVSSISASSSYIYYGDAMKGRITISRDNGWNSMYLQMNSLRTEDTAVYYCATAPIEPPYFDLWGRGTLVTVSS VL: QSVVTQPPSVSGAPGQRVTISCTGSSSNIGAGYDVHWYQQFPGKAPKVLIYGNNNRPSGVPDRFAASNSGASASLAITGLQAEDEAAYFCQSYDRRLSGPVFGGGTKLTVL", 23.9),
]
